The values you see were collected from patent US12577206B2.

target.or.test.system: UniProt:P21462
Sequence (P21462 whole entry): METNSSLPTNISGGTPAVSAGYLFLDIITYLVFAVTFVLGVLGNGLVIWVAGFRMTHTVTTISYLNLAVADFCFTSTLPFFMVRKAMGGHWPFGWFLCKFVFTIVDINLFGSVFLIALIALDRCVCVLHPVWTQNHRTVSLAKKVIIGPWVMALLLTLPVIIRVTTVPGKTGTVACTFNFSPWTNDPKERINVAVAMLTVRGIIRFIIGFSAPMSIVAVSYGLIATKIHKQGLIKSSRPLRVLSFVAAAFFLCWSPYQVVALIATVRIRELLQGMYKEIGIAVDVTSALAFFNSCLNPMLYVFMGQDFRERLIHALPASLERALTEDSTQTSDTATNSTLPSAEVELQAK
assay.protocol: FPR1 cyclic adenosine monophosphate (cAMP) assay
condition.summary: CHO cells overexpressing human FPR1; forskolin 10 μM; inhibition of cAMP production; HTRF; read-out: hFPR1 cAMP2 EC50
// EC50 lookup, one value per entry

Below are worked cases with known answers.
COc1cc(F)c(-c2c(NC(=O)c3ccc(Cl)cc3)c(=O)n(-c3ccccc3F)n2C)c(F)c1    > 10 µM
COc1cc(F)c(-c2c(NC(=O)c3ccc(OC(F)F)cc3)c(=O)n(-c3nc(C(F)(F)F)ccc3Br)n2C)c(F)c1    > 10 µM
COc1cc(F)c(-c2c(NC(=O)c3ccc(OC(F)F)cc3)c(=O)n(-c3nc(N(C)CC(C)(C)O)ccc3C(F)(F)F)n2C)c(F)c1    > 5 µM
COc1cc(OC(CO)C(F)(F)F)nc(-n2c(=O)c(NC(=O)c3ccc(OC(F)F)cc3)c(-c3c(F)cc(OC)cc3F)n2C)c1 (stereo not shown) [Example 381]    1.9 µM
COc1cc(F)c(-c2c(NC(=O)c3ccc(OC(F)(F)F)cc3)c(=O)n(-c3cccc(F)c3)n2C)c(F)c1    0.21 µM

Answer with the recorded EC50 for the molecule listed here: COc1cc(F)c(-c2c(NC(=O)c3ccc(OC(F)(F)F)cn3)c(=O)n(-c3ccccc3)n2C)c(F)c1
> 10 µM

Return EC50 for the following molecule: COc1cc(F)c(-c2c(NC(=O)c3ccc(OC(F)F)cc3)c(=O)n(-c3cc(C)cc(C)c3)n2C)c(F)c1
8.1 µM
